# PROTOCOL DESCRIPTION: yeast display, Sf9 membrane polyspecificity reagent, FACS + sequencing; frameworks hold sequencing errors
VALUE KIND: polyreactivity (PSR sort gate)

# annotated cases, reported polyreactivity (PSR sort gate) shown
QVQLVESGGGLVQAGGSLRLSCAASGSIFYNYAMGWYRQAPGKEREFVAAISRSGGSTYYADSVKGRFTISRDNAKNTVYLQMNSLKPEDSAVYYCAASTRYSAFYPYGYWGQGTQVTVSS | high polyreactivity
QVQHVESGGGLVQAGGSLRLSCAASGSIFTTYAMGWYRQAPGKERELVAAISSGGGTNYADSVKGRFTISRDNAKHTVYLQMNSLKPEDTAVYYCNKRYYRLQLHNAYGATPRRNYWGQGTQVTVSS | low polyreactivity
QGQLVESGGGLVQAGASLSLTSDDYRTIVKTYAMGSYRPAPGKESEMVAAISWRGGSTYYADSVKGRITISRDNAKNTVYLQMNSMKPVDTAVYYCVAVRNFGTRTLWYRYGYWGQGSQVTVSS | high polyreactivity
QVQLVESVGGLVQAGGSLRLSCAASGSTIDGYAMGCYIQAPGKEREFVAAISFSSASTYYADSVKGRFTISRDNAKNTVYLQMNSLKPEDTAVYYCNADFFDSGGSIEDDSWGQGTQVTVSS | low polyreactivity

Value sought for every listed sequence: polyreactivity (PSR sort gate).
1. QVQLVESGGGLVQAGGSLRLSCAASGSIFHWNAKGWYRQAPGKERELVAGITTSGGTTYYADSVKGRFTISRDNAKNTVYLQMNSLKPEDTAVYYCAARIIRWRPRWPSYGKYDYWGQGTQVTVSS
2. QVQLVESGGGLVQAGGSLRLSCAATGRSFVLNAMGWYRQAAGKERELVATINYSGSSTYYADSVKGRFTISRDNAKNTVYLQMNSLKPEDTAVYYCNRDVPYRLVYYANYYWGHGTQVTVSS
3. QVQLVESGGGLVQAGGSLRLSCAASGSTFQGYAMGWYRQAPGKERELVSAISGSGGNTYYADSVKGRFTISRDNAKNTVYLQMNSLKPEVTAVYSCAAGHVRTDWRYGYWGQGTQVTVSS
4. QVQLVESGGGLVQAGGSLRLSSAASGSIFDYYAMGWSRQAPGKERELVAAISGSGGSTYYADSVKGRFTISRDNAKNTVYLQMNSLKPEDTAVYYCNVYYRRRYDYWGQGTQVTVSS
5. QVQHVESGGGLVQAGGSHRLSCAASGSIYWWNAMGWYRQAPGKERELVAAISFSGGSTYYADSVKGRFTISRDNAKNTVYLQMNSLKPEDTAVYYCAAEAYDDYDYWGQGTQVTVSS
6. QVQLVESGGGLVQAGGSLRLSCAASGYTFYIYAMGWSRQAPGKERELVATISSSGGGTYYADSVKGRFTISRDNAKNTVYFQMYSQKPEDTAVYDCNAAGWYWQAEGYDYWGQGTQVTVSS

-- reply
1: low polyreactivity; 2: low polyreactivity; 3: low polyreactivity; 4: high polyreactivity; 5: low polyreactivity; 6: low polyreactivity

Items follow; give polyreactivity (PSR sort gate) for each.
1. QVQHVESGGALVQAGGSLRLSCAASGRIFSPNAMGWYIQAPGKEWDLVAAISSGGSTYADSVKGRFTISRDNAKNTVYLQMNSLKPEDTAVYYCARTYQWTVAGRYRAYHAGYYWGQGTQVTVSS
2. QVQLVESGGGLVQAGGSLRLSCAASGSIFYYYAMGWYRQAPGKERELVADISRSGTSTYYADSVKGRFTISRDNAKNTVYLQMNSLKPEDTAVYYCNVLRVKSITYLMDYWGQGTQVTVSS
3. QVQLVESGGGLVQAGGSLRLSCAASGNIFTSYAMGWYRQAPGKERELVAAISSGGRTSYADSVKGRFTISRDNAKNTVYLEMNSLKPEDNAVYYCAAYYRRWQREYYYWGQGTKVTVSS
4. QVQLVESGGGLVKAGGSLSLSCAASGFTVYRYTMGWYRPAPGKEREVVARITYSGGSTYYADSVKVRFTISRDNAKNTVYLQLYCLKPVDSAVYYCNARSDFYSRYGYKYDYWGQGTQVTVSS
5. QVQIVESGGALVQAGCSLRLSCAASGSTFWYYVMGWYRQAPGKERELVAAISIVGSTYYADSVKGRFTLSRDNAKNTVYLQMNSLKPEDTAVYYCAADIYQYGYDYWGQGTQVTVSS

-- reply
1. high polyreactivity
2. high polyreactivity
3. high polyreactivity
4. high polyreactivity
5. low polyreactivity

# batch size: 6; output polyreactivity (PSR sort gate) per entry
1. QVQLVESGGGLVHAGGSLRLSCAASGSTFDGYTMGWYRQAPGTERELVAAITDSGGSTYYADSVKGRFTISRDKAKNTVYLQMNSQKPEDTAVYYFAAAVPELYEVRYHDDYWGQGTQVTVSS
2. QVQLVESGGGLVQAGCSLRLICAASGRIFSTYAMGWYRQAPGKERELVAAITSRGGSTYYADSVKGRFTISRDNAKNTVYLQMNSLKPEDTAVYYCATESPYKWGGYRFYYWGQGTQVTVSS
3. QVQLVESGGGLVQAGGSLRLSCAASGSTFYGYAMGWYRQAPGKERELVAAISVRAGITYYADSVKGRFTISRDNAKNTVYLQMNSLKPEDTAVYYCAKDHWTTSYDEGDYWGQGTQVTVSS
4. QVQLVESGGGLFQAGGSLRLSCAASGIIFRGNAMGWYRQATVKERELVAAISKSGGRTYYADSVKGRFTISRDNAKNTVYLEMICLKPEDSAVYYCAARFYAVGGYDYWGQGTQVTVSS
5. QVQLVESGGGLVQAGGSLRLSCAASGSIFPYNVMGWYRQAPGKERELVAVITGSTGRTYYADSVKGRFTISRDNAKNTVYLQMNSLKPEDTAVYYCAKRRYWAPYDYWGQGTQVTVSS
6. QVQLVDSGGGLVQAGGSLPLSCAASGSIFSFYAMGWYRQAPGKERELVAAISGNGGRTYYADSVKGRFTISRDNAKNSVYLQMNSLKPEDTAVYYCAAYNSPRLCYWGQGTQVTVSS

-- reply
1: low polyreactivity; 2: high polyreactivity; 3: low polyreactivity; 4: high polyreactivity; 5: high polyreactivity; 6: high polyreactivity
